Assay: Solvent solubility
Format: physicochemical
Settings: butyl acetate, 25° C.
This listing pairs compounds with measured Solvent solubility, Butyl acetate.
Dear colleague, please return just the value in wt %, with no unit written.

1) COc1cc2c(OC)cccc2cc1C(=O)N(C)OS(=O)(=O)CC12CCC(CC1=O)C2(C)C (stereo not drawn) | 15
2) CC(=O)c1ccc(Sc2ccc(C(=O)N(C)OS(=O)(=O)CC34CCC(CC3=O)C4(C)C)cc2)cc1 (stereo not drawn) | 15

Which Solvent solubility, Butyl acetate reading was recorded for the compound COc1ccc2cc(C(=O)N(C)OS(=O)(=O)CC34CCC(CC3=O)C4(C)C)c(=O)oc2c1 (stereo not drawn) ?
15

Which Solvent solubility, Butyl acetate reading was recorded for the compound COc1cc2c(OC)cccc2cc1C(=O)N(C)OS(C)(=O)=O ?
20

Which Solvent solubility, Butyl acetate reading was recorded for the compound CN(OS(=O)(=O)CC12CCC(CC1=O)C2(C)C)C(=O)c1c2ccccc2cc2ccccc12 (stereo not drawn) ?
5

Which Solvent solubility, Butyl acetate reading was recorded for the compound CC1(C)C2CCC1(CS(=O)(=O)OC1C(=O)c3cccc4cccc(c34)C1=O)C(=O)C2 (stereo not drawn) [A′-1, reference compound] ?
1

Which Solvent solubility, Butyl acetate reading was recorded for the compound COc1ccc2cc(C(=O)N(C)OS(=O)(=O)CC34CCC(CC3=O)C4(C)C)ccc2c1 (stereo not drawn) ?
15

Which Solvent solubility, Butyl acetate reading was recorded for the compound COc1cc2c(OC)cccc2cc1C(=O)N(C)OS(=O)(=O)c1c(F)c(F)c(F)c(F)c1F ?
10

Which Solvent solubility, Butyl acetate reading was recorded for the compound CN(OS(=O)(=O)CC12CCC(CC1=O)C2(C)C)C(=O)c1ccc2ccccc2c1 (stereo not drawn) ?
20

---

This listing pairs compounds with measured Molar extinction coefficient.
Assay: Molar extinction coefficient at i-line (365 nm), UV-visible spectrophotometer
Format: physicochemical
Conditions: 365 nm (i-line), 0.25 mmol/L in acetonitrile, 1 cm cell
Remember to quote the unit after the number.

Recorded results for 2 compounds are shown here.
1. COc1cc2c(OC)cccc2cc1C(=O)N(C)OS(=O)(=O)CC12CCC(CC1=O)C2(C)C (centres unmarked) | 360 L/mol/cm
2. COc1cc2c(OC)cccc2cc1C(=O)N(C)OS(C)(=O)=O | 300 L/mol/cm

Which Molar extinction coefficient reading was recorded for the compound COc1ccc2cc(C(=O)N(C)OS(=O)(=O)CC34CCC(CC3=O)C4(C)C)ccc2c1 (centres unmarked) ?
120 L/mol/cm

Which Molar extinction coefficient reading was recorded for the compound COc1cc2c(OC)cccc2cc1C(=O)N(C)OS(=O)(=O)c1c(F)c(F)c(F)c(F)c1F ?
400 L/mol/cm

Which Molar extinction coefficient reading was recorded for the compound COc1ccc2cc(C(=O)N(C)OS(=O)(=O)CC34CCC(CC3=O)C4(C)C)c(=O)oc2c1 (centres unmarked) ?
6500 L/mol/cm

---

Assay: Solvent solubility
Type: physicochemical
Conditions: PGMEA, 25° C.
Description: In a test tube, 0.1 g of the synthesized photoacid generator was placed, and an organic solvent (butyl acetate, toluene or PGMEA) was added thereto in 0.2 g portions under a condition where the temperature was adjusted to 25° C. until the photoacid generator was completely dissolved. In this connection, in the case where the photoacid generator was not completely dissolved even when 20 g of the solvent was added, the photoacid generator was evaluated as one that was not dissolved.
This listing pairs compounds with measured Solvent solubility, PGMEA.
Dear colleague, please return just the value in wt %, with no unit written.

1) COc1ccc2cc(C(=O)N(C)OS(=O)(=O)CC34CCC(CC3=O)C4(C)C)ccc2c1 (stereo not drawn) [A-2] | 15

Which Solvent solubility, PGMEA reading was recorded for the compound CN(OS(=O)(=O)CC12CCC(CC1=O)C2(C)C)C(=O)c1ccc2ccccc2c1 (stereo not drawn) [A-1] ?
20

Which Solvent solubility, PGMEA reading was recorded for the compound CC1(C)C2CCC1(CS(=O)(=O)OC1C(=O)c3cccc4cccc(c34)C1=O)C(=O)C2 (stereo not drawn) [A′-1, reference compound] ?
0.5

Which Solvent solubility, PGMEA reading was recorded for the compound COc1ccc2cc(C(=O)N(C)OS(=O)(=O)CC34CCC(CC3=O)C4(C)C)c(=O)oc2c1 (stereo not drawn) [A-7] ?
15

Which Solvent solubility, PGMEA reading was recorded for the compound CC(=O)c1ccc(Sc2ccc(C(=O)N(C)OS(=O)(=O)CC34CCC(CC3=O)C4(C)C)cc2)cc1 (stereo not drawn) [A-6] ?
15

Which Solvent solubility, PGMEA reading was recorded for the compound CN(OS(=O)(=O)CC12CCC(CC1=O)C2(C)C)C(=O)c1c2ccccc2cc2ccccc12 (stereo not drawn) [A-8] ?
5
